# Tested on: C. jejunii ATCC 33291
# Assay Details: micro-dilution broth method (MIC, MBC)
# Assay type: cell-based, Campylobacter jejunii
# Protocol Conditions: C. jejunii ATCC 33291, value in brackets
Property: MBC; scope: individual molecules
Provide only the numeric value, understood in µM/mL.

Consider the worked cases shown below.
Molecule	System Tested	Unit Spec	MBC
Cc1ncc([N+](=O)[O-])n1CCO.Cc1ncc([N+](=O)[O-])n1CCO.O=[N+]([O-])[O-].[Ag+] [[Ag(MTZ)2NO3]]	C. jejunii ATCC 33291	µM/mL	0.4
O=[N+]([O-])[O-].[Ag+] [AgNO3, Silver nitrate]	C. jejunii ATCC 33291	µM/mL	0.74

Now, please, on to the next molecule.
Form field: reported MBC of Cc1ncc([N+](=O)[O-])n1CCO.Cc1ncc([N+](=O)[O-])n1CCO.Cc1ncc([N+](=O)[O-])n1CCO.Cc1ncc([N+](=O)[O-])n1CCO.O=S(=O)([O-])[O-].[Ag+].[Ag+] [[Ag(MTZ)2]2SO4]
0.46

###

# Test system: C. perfringens ATCC 13124
# Assay Details: microbe, parasite or virus in culture
# Type: cell-based, Clostridium perfringens
# Protocol Conditions: C. perfringens ATCC 13124, value in brackets
Returns: string. Value is true if measured MIC is below 0.4 µM/mL, and false if it is greater than or equal to it.

Compound	Assigned Class
Cc1ncc([N+](=O)[O-])n1CCO.Cc1ncc([N+](=O)[O-])n1CCO.Cc1ncc([N+](=O)[O-])n1CCO.Cc1ncc([N+](=O)[O-])n1CCO.O=S(=O)([O-])[O-].[Ag+].[Ag+] [[Ag(MTZ)2]2SO4]	true

Lab note: MIC threshold 0.4 µM/mL. Does this compound come in strictly under it? O=S(=O)([O-])[O-].[Ag+].[Ag+] [Ag2SO4, silver sulfate]
false

Lab note: MIC threshold 0.4 µM/mL. Does this compound come in strictly under it? Cc1ncc([N+](=O)[O-])n1CCO [MTZ, 2-Methyl-5-nitroimidazole-1-ethanol]
true

MIC strictly < 0.4 µM/mL for this compound? O=[N+]([O-])[O-].[Ag+] [AgNO3, Silver nitrate]
true

# check: MIC < 0.4 µM/mL for Cc1ncc([N+](=O)[O-])n1CCO.Cc1ncc([N+](=O)[O-])n1CCO.O=[N+]([O-])[O-].[Ag+] [[Ag(MTZ)2NO3]]
true

###

# Tested on: B. fragilis ATCC 10240
# Assay Details: micro-dilution broth method (MIC, MBC)
# Format: cell-based, Bacteroides fragilis
# Protocol Conditions: B. fragilis ATCC 10240, value in brackets
Listed here: items and their measured MIC.
Please reply with the bare figure in µM/mL and do not write the unit itself.

Some solved entries appear below for comparison.
Compound	Quantitative Readout
O=S(=O)([O-])[O-].[Ag+].[Ag+] [Ag2SO4, silver sulfate]	0.8
Cc1ncc([N+](=O)[O-])n1CCO.Cc1ncc([N+](=O)[O-])n1CCO.Cc1ncc([N+](=O)[O-])n1CCO.Cc1ncc([N+](=O)[O-])n1CCO.O=S(=O)([O-])[O-].[Ag+].[Ag+] [[Ag(MTZ)2]2SO4]	0.0002
Cc1ncc([N+](=O)[O-])n1CCO [MTZ, 2-Methyl-5-nitroimidazole-1-ethanol]	0.003
O=[N+]([O-])[O-].[Ag+] [AgNO3, Silver nitrate]	0.09

// moving on: another record for MIC
Could you share which MIC value was measured for Cc1ncc([N+](=O)[O-])n1CCO.Cc1ncc([N+](=O)[O-])n1CCO.O=[N+]([O-])[O-].[Ag+] [[Ag(MTZ)2NO3]] ?
0.003

###

# Tested on: F. nucleatum ATCC 25586
# Assay Details: micro-dilution broth method (MIC, MBC)
# Type: cell-based, Fusobacterium nucleatum
# Protocol Conditions: F. nucleatum ATCC 25586, value in brackets
Reported Endpoint: MIC

Molecule	MIC
O=[N+]([O-])[O-].[Ag+] [AgNO3, Silver nitrate]	0.003 µM/mL
Cc1ncc([N+](=O)[O-])n1CCO.Cc1ncc([N+](=O)[O-])n1CCO.O=[N+]([O-])[O-].[Ag+] [[Ag(MTZ)2NO3]]	0.0015 µM/mL

Would you kindly share the measured MIC for `Cc1ncc([N+](=O)[O-])n1CCO` ?
0.01 µM/mL

Fill in the blank: the reported MIC of O=S(=O)([O-])[O-].[Ag+].[Ag+] [Ag2SO4, silver sulfate] is ____.
0.1 µM/mL

Please report the recorded MIC for Cc1ncc([N+](=O)[O-])n1CCO.Cc1ncc([N+](=O)[O-])n1CCO.Cc1ncc([N+](=O)[O-])n1CCO.Cc1ncc([N+](=O)[O-])n1CCO.O=S(=O)([O-])[O-].[Ag+].[Ag+] [[Ag(MTZ)2]2SO4] .
0.0004 µM/mL

###

# System: E. faecalis ATCC 29212
# Assay Details: micro-dilution broth method (MIC, MBC)
# Assay type: cell-based, Enterococcus faecalis
# Protocol Conditions: E. faecalis ATCC 29212, value in brackets
Item-by-item account of MBC

Molecule	MBC
Cc1ncc([N+](=O)[O-])n1CCO [MTZ, 2-Methyl-5-nitroimidazole-1-ethanol]	> 5.85 µM/mL
Cc1ncc([N+](=O)[O-])n1CCO.Cc1ncc([N+](=O)[O-])n1CCO.O=[N+]([O-])[O-].[Ag+] [[Ag(MTZ)2NO3]]	0.2 µM/mL
O=[N+]([O-])[O-].[Ag+] [AgNO3, Silver nitrate]	0.185 µM/mL

Entry O=S(=O)([O-])[O-].[Ag+].[Ag+] [Ag2SO4, silver sulfate] , system E. faecalis ATCC 29212: what MBC was measured?
0.4 µM/mL

Form: Entry = Cc1ncc([N+](=O)[O-])n1CCO.Cc1ncc([N+](=O)[O-])n1CCO.Cc1ncc([N+](=O)[O-])n1CCO.Cc1ncc([N+](=O)[O-])n1CCO.O=S(=O)([O-])[O-].[Ag+].[Ag+] [[Ag(MTZ)2]2SO4] | System = E. faecalis ATCC 29212 | MBC = ____
0.06 µM/mL

###

# Test system: V. parvula ATCC 10790
# Assay Details: micro-dilution broth method (MIC, MBC)
# Type: cell-based, Veillonella parvula
# Protocol Conditions: V. parvula ATCC 10790, value in brackets
Reported Endpoint: MBC
Reply with the number and its unit after it.

Here is how some molecules turned out for MBC.
Molecule	MBC
Cc1ncc([N+](=O)[O-])n1CCO.Cc1ncc([N+](=O)[O-])n1CCO.Cc1ncc([N+](=O)[O-])n1CCO.Cc1ncc([N+](=O)[O-])n1CCO.O=S(=O)([O-])[O-].[Ag+].[Ag+] [[Ag(MTZ)2]2SO4]	0.004 µM/mL
O=S(=O)([O-])[O-].[Ag+].[Ag+] [Ag2SO4, silver sulfate]	0.2 µM/mL
Cc1ncc([N+](=O)[O-])n1CCO.Cc1ncc([N+](=O)[O-])n1CCO.O=[N+]([O-])[O-].[Ag+] [[Ag(MTZ)2NO3]]	0.006 µM/mL
Cc1ncc([N+](=O)[O-])n1CCO [MTZ, 2-Methyl-5-nitroimidazole-1-ethanol]	0.01 µM/mL

Switching to the query record.
Recorded MBC for O=[N+]([O-])[O-].[Ag+] [AgNO3, Silver nitrate] , please?
0.09 µM/mL

###

# Tested on: F. nucleatum ATCC 25586
# Assay Details: micro-dilution broth method (MIC, MBC)
# Type: cell-based, Fusobacterium nucleatum
# Protocol Conditions: F. nucleatum ATCC 25586, value in brackets
Reported Endpoint: MBC

Reference set (4 entries):
Molecule	System Tested	MBC
Cc1ncc([N+](=O)[O-])n1CCO.Cc1ncc([N+](=O)[O-])n1CCO.Cc1ncc([N+](=O)[O-])n1CCO.Cc1ncc([N+](=O)[O-])n1CCO.O=S(=O)([O-])[O-].[Ag+].[Ag+] [[Ag(MTZ)2]2SO4]	F. nucleatum ATCC 25586	0.0004 µM/mL
O=[N+]([O-])[O-].[Ag+] [AgNO3, Silver nitrate]	F. nucleatum ATCC 25586	0.006 µM/mL
O=S(=O)([O-])[O-].[Ag+].[Ag+] [Ag2SO4, silver sulfate]	F. nucleatum ATCC 25586	0.1 µM/mL
Cc1ncc([N+](=O)[O-])n1CCO	F. nucleatum ATCC 25586	0.01 µM/mL

Moving on to another molecule below.
Would you mind telling me what MBC value was observed for Cc1ncc([N+](=O)[O-])n1CCO.Cc1ncc([N+](=O)[O-])n1CCO.O=[N+]([O-])[O-].[Ag+] [[Ag(MTZ)2NO3]] ?
0.003 µM/mL

###

# Test system: F. nucleatum ATCC 25586
# Assay Details: micro-dilution broth method (MIC, MBC)
# Assay type: cell-based, Fusobacterium nucleatum
# Protocol Conditions: F. nucleatum ATCC 25586
Reported Endpoint: MIC (mg/L)
Provide the reading as a plain figure in mg/L.

Use these answered entries as a reference point.
Compound	MIC [mg/L]
O=S(=O)([O-])[O-].[Ag+].[Ag+] [Ag2SO4, silver sulfate]	31.3
Cc1ncc([N+](=O)[O-])n1CCO.Cc1ncc([N+](=O)[O-])n1CCO.O=[N+]([O-])[O-].[Ag+] [[Ag(MTZ)2NO3]]	0.49
Cc1ncc([N+](=O)[O-])n1CCO.Cc1ncc([N+](=O)[O-])n1CCO.Cc1ncc([N+](=O)[O-])n1CCO.Cc1ncc([N+](=O)[O-])n1CCO.O=S(=O)([O-])[O-].[Ag+].[Ag+] [[Ag(MTZ)2]2SO4]	0.49

// next item, MIC requested
Which MIC value belongs to O=[N+]([O-])[O-].[Ag+] [AgNO3, Silver nitrate] ?
0.49
